The entries below are paired with their reported GI50.
System: XF498
TEST_DETAILS: NCI tumour cell line growth inhibition, 48 h
The source made the active and inactive calls. Rule as the data show it: active = GI50 up to about 1.1 µM and inactive = higher.

Use the examples below as a reference point.
1. C/C(CCn1[nH]c(=O)ccc1=O)=N\OCCCc1ccccc1; > 100 µM (inactive)
2. COc1cc(CNc2ccc(C(C)C)cc2)cc(OC)c1OC; 32.3 µM (inactive)
3. CCCS(=O)(=O)/C(=C(\c1ccc(Br)cc1)S(=O)(=O)CCC)c1ccc(Br)cc1; > 10 µM (inactive)
4. COc1cc(OC)c2ssc3c(OC)cc(OC)c4ssc1c2-c43; > 100 µM (inactive)
5. COc1cc2c3c(c1OC)C1(C=CC(=O)C=C1)C[C@H]3N(C)CC2; > 100 µM (inactive)

Shifting focus to the molecule that follows.
Which GI50 is reported for this molecule? `CSc1ccc(/C=C2\CN(C)C/C(=C\c3ccc(SC)cc3)C2=O)cc1`
18.9 µM (inactive)

###

System: HT-29
TEST_DETAILS: NCI tumour cell line growth inhibition, 48 h
The source made the active and inactive calls. Rule as the data show it: active = GI50 up to about 1.1 µM and inactive = higher.
Entry note: the call must match one of Yes = active, No = inactive

The following compounds have reported results that may help.
1) CN(C)C(=S)N/N=C\C=N/NC(=S)N(C)C; Yes
2) CCOC(=O)/C(=C\c1ccccc1)C(=O)CCN1CCOCC1; No
3) O=C(NCCCNCCNC(=O)c1cc(-c2ccccc2)nc2ccccc12)c1cc(-c2ccccc2)nc2ccccc12; No

Please indicate how the test categorized CC(=O)Nc1ccc2c3c(cc(O)c2c1)N(C(=O)CCCCCC(=O)Nc1ccc2c4c(cc(O)c2c1)N(C(=O)OC(C)(C)C)CC4CCl)CC3CCl (stereo unspecified) .
No

Same read-out for `O=C(Nc1sccc1S(=O)(=O)c1ccc(Cl)cc1)c1ccccc1` ?
No

Same read-out for `COc1ccc(OC)c2c(=S)c3ccccc3[nH]c12` ?
No

Same read-out for `Cc1ccc(NC(=O)/C(Cc2nc3ccc([N+](=O)[O-])cc3nc2O)=N\NC(=O)C[n+]2ccccc2)c(C)c1` ?
No

Same read-out for `Fc1ccc(/N=C2C=C/C(=N\c3ccc(F)cc3)c3ccccc3\2)cc1` ?
No

###

Test system: HOP-92
TEST_DETAILS: NCI tumour cell line growth inhibition, 48 h
The source made the active and inactive calls. No stated cut-off is given here; in the data, active = GI50 up to about 1.1 µM and inactive = higher.
Entry note: the call must match one of active, inactive

The following compounds have reported results that may help.
1. OC(c1ccccc1)C1CC2C=CC1C2 (centres undefined); inactive
2. COc1ccc(CC2NC(=O)/C=C/CC(C(C)C3OC3c3ccccc3)OC(=O)C(CC(C)C)OC(=O)C(C)CNC2=O)cc1Cl (centres undefined); active
3. C(CCCCc1nnc(N2CCOCC2)o1)CCCc1nnc(N2CCOCC2)o1; inactive
4. c1ccc(C2OCC(OC3CCCCO3)CO2)cc1 (centres undefined); inactive
5. COc1ccc(C2c3cc4c(cc3OC3(OC)COC(=O)C23)OCO4)c(OC)c1 (centres undefined); inactive
6. COc1ccc([C@H]2CC(=O)C[C@H](c3ccc(OC)cc3)C23C(=O)c2ccccc2C3=O)cc1; inactive

Please indicate how the test categorized CC(OC1CC(=O)CC2C(=O)C=CC(=O)C12)c1ccccc1 (centres undefined) .
inactive

Same read-out for COc1ccc(-c2nc(-c3cnccn3)n(C3OC(CO)C(O)C3O)n2)cc1 (centres undefined) ?
inactive

Same read-out for `COc1ccc(OC)c(/C=C(/C#N)c2ccccc2)c1` ?
inactive

###

Test system: SW-620
TEST_DETAILS: NCI tumour cell line growth inhibition, 48 h
Activity calls are given as the source filed them. No stated cut-off is given here; in the data, active = GI50 up to about 1.1 µM and inactive = higher.
REPORTED_PROPERTY: GI50

1) Cc1cc(C)c2c(c1)CSCc1cc(C)cc(C)c1-2; 71.8 µM (inactive)
2) Cn1c(N)cc(=O)nc1N; > 100 µM (inactive)

Shifting focus to the compound that follows.
Please state recorded GI50 (tested on SW-620) of `CS/C(=N\c1ccc([N+](=O)[O-])cc1C#N)NC(=O)c1ccccc1`
> 100 µM (inactive)

###

Tested on: XF498
TEST_DETAILS: NCI tumour cell line growth inhibition, 48 h
Active and inactive are the calls of the source. No stated cut-off is given here; in the data, active = GI50 up to about 1.1 µM and inactive = higher.
The entries below are paired with their reported GI50.

Use the examples below as a reference point.
1. CC(=O)N/C(=C\c1ccc(/C=C(\NC(C)=O)c2nc3cc(Cl)ccc3[nH]2)cc1)c1nc2ccccc2[nH]1; > 100 µM (inactive)
2. N=C(N)SCCc1cn2ccccc2n1; > 100 µM (inactive)
3. O=C(O)c1oc2ccc([N+](=O)[O-])c3c2c1CCC3; 24.4 µM (inactive)

Which GI50 is reported for this compound? `CS/C(=N\c1ccc([N+](=O)[O-])cc1C#N)NC(=O)c1ccccc1`
> 100 µM (inactive)

Same read-out for `C[N+]1(C)C/C(=C\c2ccccc2)C(=O)/C(=C/c2ccccc2)C1` ?
> 100 µM (inactive)

###

Tested on: TK-10
TEST_DETAILS: NCI tumour cell line growth inhibition, 48 h
The source made the active and inactive calls. Cut-off read from the data, not from the text of the source: active = GI50 up to about 1.1 µM and inactive = higher.
REPORTED_PROPERTY: GI50

Which GI50 is reported for this compound? O=C1CC(O)c2c(Br)sc(Br)c21 (stereo not drawn)
3.54 µM (inactive)

Same read-out for `O=C(CCc1cc(O)cc(O)c1)NCCc1cc(OCc2ccccc2)cc(OCc2ccccc2)c1` ?
21.4 µM (inactive)

Same read-out for CC(C(=O)O)/C(=C\c1ccc2c(c1)OCO2)C(=O)O (stereo not drawn) ?
> 100 µM (inactive)

Same read-out for COc1ccc(-n2c(SC(CN3CCOCC3)CN3CCCC3=O)nc3ccccc3c2=O)cc1 (stereo not drawn) ?
95.1 µM (inactive)

Same read-out for `CN1CCN(c2cc3nsnc3c3nsnc23)CC1` ?
> 10 µM (inactive)

Same read-out for `CCc1nc(N)nc(N)c1-c1ccc2nnn(O)c2c1` ?
> 100 µM (inactive)

Same read-out for `Cc1nnc(N)nc1/C=C\c1ccc(N(C)C)cc1` ?
> 37.6 µM (inactive)

Same read-out for C1=C(c2ccccc2)C(OC2Oc3ccccc3C=C2c2ccccc2)Oc2ccccc21 (stereo not drawn) ?
> 100 µM (inactive)

###

System: RPMI-8226
TEST_DETAILS: NCI tumour cell line growth inhibition, 48 h
The source made the active and inactive calls. Rule as the data show it: active = GI50 up to about 1.1 µM and inactive = higher.
Entry note: the call must match one of active, inactive

The following compounds have reported results that may help.
1) Nc1ncnn2c(C3OC(CO)C(O)C3O)ccc12 (centres undefined); active
2) C1CCC2C(C1)CCCC2NC1=NCCO1 (centres undefined); inactive
3) COC(=O)C1C2C=CC(C2)N1[C@@H](C)c1ccccc1 (some centres undefined); inactive
4) O=c1[nH]c(=O)n(C2CC(O)C(CO)O2)cc1Oc1ccccc1 (centres undefined); inactive
5) CS/C(=N\c1ccc([N+](=O)[O-])cc1C#N)NC(=O)c1ccccc1; inactive

Please indicate how the test categorized Cc1ccc(S(=O)(=O)OC2CSSCC2OS(=O)(=O)c2ccc(C)cc2)cc1 (centres undefined) .
inactive

Same read-out for `COc1ccc(OC)c(/C=C(/C#N)c2ccccc2)c1` ?
inactive

Same read-out for `Cc1cc(C)nc(NS(=O)(=O)c2ccc(NC(=O)c3cccc4c(Nc5ccc(S(=O)(=O)Nc6nc(C)cc(C)n6)cc5)c5ccccc5nc34)cc2)n1` ?
inactive

Same read-out for `CCc1nc(N)nc(N)c1-c1ccc2nnn(O)c2c1` ?
inactive

###

System: MDA-MB-231
TEST_DETAILS: NCI tumour cell line growth inhibition, 48 h
Activity calls are given as the source filed them. Rule as the data show it: active = GI50 up to about 1.1 µM and inactive = higher. Positions of bridges follow the written chain, without caps; N, C: chain ends. Non-standard residues stand in square brackets, D forms with d. Residues, ends and D or L forms follow the SMILES beside them. Aib = CC(C)(N)C(=O)O; βAla = NCCC(=O)O
Entry note: the call must match one of YES = active, NO = inactive

The following compounds have reported results that may help.
1) O=C(Nc1sccc1S(=O)(=O)c1ccc(Cl)cc1)c1ccccc1; NO
2) COc1cccc(C2c3cc4c(cc3OC(NNC(N)=O)C2C)OCO4)c1OC (centres undefined); NO
3) COc1ccc(C(=O)/C=C/c2ccc(Oc3cc(C(=O)/C=C/c4ccc(O)cc4)c(O)cc3OC)cc2)c(O)c1 [RHUSCHALCONE I]; NO
4) CCOC(=O)c1c(SCCN(CC)CC)n(-c2ccccc2)c(=S)n(-c2ccccc2)c1=O; NO
5) COC(=O)c1c(OC(C)=O)ccc2c1c1cc3ccccc3c(OC(C)=O)c1n2C; NO
6) CC#Cc1ccc(-c2ccccc2)s1; NO
7) CC1(C)NC(=O)C(NC(=O)C(N)CC(=O)O)CCCCNC(=O)CCNC1=O (centres undefined) (H-DK[Aib][βAla]; lactam 2-C; configuration not given here); NO
8) CCOC(=O)Cn1c(C(F)(F)F)nc2nc(Cl)c(Cl)nc21; NO
9) COc1ccc(CCNC2=CC(=O)c3ncccc3C2=O)cc1OC; YES
10) CN1CN(c2ccccc2)C2(CCN(CCc3csc4ccccc34)CC2)C1=O; NO

# ---- query compound ----
Please indicate how the test categorized `O=[N+]([O-])C(/C(Cl)=C(/Cl)N1CCOCC1)=C1\Nc2ccccc2O1` .
NO
